- Read-out: Monokine induced gamma interferon (MIG), CXCL9 (gene 4283)
- assay_name: BSK_SAg_MIG: BioMAP Diversity Plus: SAg Assay for Monokine induced gamma interferon (MIG) Biomarker Activity (AID 2283092)
- conditions: primary human HUVEC with PBMC; actives raise or lower the signal
The source made the active and inactive calls. The calls were made as follows: active = hit-call score of the fitted dose curve at least 0.9, where 1 is the maximum; inactive = score below 0.9.
Outcomes: 1 = active, 0 = inactive

- compound: "c1ccc2c(c1)oc1ccccc12"
  qualitative_label: 0
- compound: "c1ccc(C2CO2)cc1 (configuration not stated)"
  qualitative_label: 0
- compound: "OCCOCCO"
  qualitative_label: 0
- compound: "COP(=S)(OC)SCN1C(=O)c2ccccc2C1=O"
  qualitative_label: 0
- compound: "CN(C)C(=O)Nc1ccc(Cl)cc1"
  qualitative_label: 0
- compound: "C1=Cc2cccc3cccc1c23"
  qualitative_label: 0
- compound: "ClC1=C(Cl)C2(Cl)C3C(Cl)C=CC3C1(Cl)C2(Cl)Cl (configuration not stated)"
  qualitative_label: 1
- compound: "O=P(OCCCl)(OCCCl)OCCCl"
  qualitative_label: 0
- compound: "C[N+](C)(C)CC1CO1 (configuration not stated)"
  qualitative_label: 0
- compound: "Cc1ccc([N+](=O)[O-])cc1"
  qualitative_label: 0
- compound: "Oc1ccc2ccc3cccc4ccc1c2c34"
  qualitative_label: 1
- compound: "Clc1ccc(Cl)c(Cl)c1"
  qualitative_label: 0
